experiment: small-molecule binders of probe aLefty1, primary screen, biochemical, small-molecule microarray, 635/667 nm fluorescence (AID 1153); settings: higher = more signal;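 note: score merges spot fluorescence with signal-to-noise ratio from the scanned slide images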
Output Fulfilled for composite z-score not less than -0.03; output Not fulfilled otherwise.

Request: Hello, I need to know if `O=C1C2=CC[C@H]3C(=O)N(Cc4ccccc4)C(=O)[C@H]3[C@H]2[C@H](O)[C@@H]2O[C@H]12` has measured composite z-score not below -0.03. Thanks!
Result: Not fulfilled

Request: Queued: `COc1ccc(O[C@H]2C=C[C@@H](c3ccccc3)O[C@@H]2COC(=O)CCC(C)=NOC[C@@H](O)COCc2ccco2)cc1`
Result: Not fulfilled

Request: And then `COc1ccc(COC(=O)NN=C2C[C@@H](O)[C@@H](O)[C@@H]3[C@@H]4C(=O)N(C[C@@H]5CCCO5)C(=O)[C@@H]4CC[C@@H]23)cc1` , what is it?
Result: Not fulfilled

Request: Same again, this time with `O=C1[C@H]2[C@H]3[C@H](O)[C@H](O)CC(=NO[C@@H]4O[C@H](CO)[C@@H](O)[C@H](O)[C@H]4O)[C@@H]3CC[C@H]2C(=O)N1C1CCCCC1`
Result: Not fulfilled

Request: Next entry: `CC(=O)OC[C@H]1O[C@H](CC=NOC[C@@H](O)COCc2ccco2)C=C[C@@H]1OC(C)=O`
Result: Fulfilled

Request: Next record, please: CCOC(=O)[C@H](CC(C)C)NC(=O)CCC1CC(OC(=O)NCc2ccc3c(c2)OCO3)CC2(CCCC(COC(=O)NCCc3ccc(Cl)cc3)O2)O1 (stereo not given in full)
Result: Fulfilled

Request: Continue with CCc1cc2c(nc1CC)CCN(CCC(C)=NOC(C)CN1CCCCc3nc(C)c(C)cc31)C2 (stereo not given)
Result: Fulfilled

Request: Same read-out for `CON=C1c2cc(OC)ccc2O[C@H](c2cccc(OC)c2)[C@H]1O` ?
Result: Fulfilled

Request: Try the compound `CC(C)(C)N1C(=O)[C@H]2[C@H]3[C@H](O)[C@H](O)CC(=NNC(=O)OCc4ccccc4)[C@H]3CC[C@H]2C1=O`
Result: Not fulfilled

Request: Field entry: `CCOC(=O)NN=C1C[C@@H](O)[C@@H](O)[C@@H]2[C@@H]3C(=O)N(C[C@@H]4CCCO4)C(=O)[C@@H]3CC[C@H]12`
Result: Not fulfilled

Request: Continue with CCOC(=O)[C@H](CC(C)C)NC(=O)CCC1CC(OC(=O)NCc2ccc3c(c2)OCO3)CC2(CCCC(COC(=O)NCCC(C)C)O2)O1 (stereo not given in full)
Result: Not fulfilled

Request: Queued: `CC(CCC(=O)OC[C@H]1O[C@H](C#Cc2ccccc2)C=C[C@@H]1Oc1ccc(C)cc1)=NO[C@H](C)c1cn([C@@H]2COC[C@H]2O)nn1`
Result: Not fulfilled

Request: Please do the same for `CC(C)=CCCC(C)=CCON=C1[C@H]2CCn3c(=O)n(-c4ccccc4)c(=O)n3[C@H]2[C@H](O)[C@@H]2O[C@H]12` as well.
Result: Fulfilled

Request: Try `CC(CCN1CCc2nc(-c3ccccc3)c(-c3ccccc3)cc2C1)=NO[C@H](C)c1cn([C@H](CO)Cc2ccccc2)nn1` next.
Result: Fulfilled

Request: Then `CCCC[C@H]1CN2[C@@H](CC[C@@H](C)[C@@H]2c2ccc(Br)cc2)C(=O)O1` ?
Result: Fulfilled
